method-notes: Kinetics in single dose IV toxicology study in dogs
Type: in vivo
measurement-conditions: both sexes, dog, plasma, IV infusion of Compound (A) 5 mg/kg

{"compound": "CC1=NC(/C=C/[C@@H]2C[C@@H](O)[C@](C)(O)CCC[C@H](C)[C@H](O)[C@@H](C)C(=O)C(C)(C)[C@@H](O)CC(=O)N2)CS1 (stereo partly shown)", "AUC / ng·h/mL": 1110}
